# protocol_description: NCI Yeast Anticancer Drug Screen. Data for the bub3 strain (AID 167)
# experimental_setup: S. cerevisiae bub3 mutant strain, at 50.0 µM
About 79,000 compounds went through this panel and 15% of them were active in at least one assay; those are over-represented in the sample as a whole. The source made the active and inactive calls. Rule as the data show it: active = growth inhibition above about 70%; inactive = the rest.
Assign a class; possible classes are active, inactive

// below: answered compounds
{"compound": "CCCC1OC(c2ccccc2)OCC1CC (stereo not given)", "answer_label": "inactive"}
{"compound": "CC(=O)Nc1ncc(Br)s1", "answer_label": "inactive"}
{"compound": "O=C1C=CC(=CC=C2C=CN(CCCCCCO)C=C2)C=C1", "answer_label": "inactive"}

*Q* Hey, what did the test say about Cc1ccc(/C=c2\cc3oc(=O)c4cccc(c4-3)c2=O)cc1 ?
*A* inactive

*Q* Continue with CC(Cl)S(N)(=O)=O (stereo not given)
*A* inactive

*Q* Continue with O=S(=O)(NOCCCCONS(=O)(=O)c1ccccc1)c1ccccc1
*A* inactive

*Q* Continue with O=C(CC(=O)CC(O)(C(F)(F)F)C(F)(F)F)CC(O)(C(F)(F)F)C(F)(F)F
*A* inactive

*Q* Continue with N#Cc1c(C(F)(F)F)cc(-c2cccs2)nc1SC(C(=O)Nc1c(F)cccc1F)c1ccccc1 (stereo not given)
*A* inactive

*Q* Continue with Clc1ccccc1C(N1CCCCC1)N1CCCCC1
*A* inactive
